# Study system: MAGL (Homo sapiens (Human), UniProt Q99685)
# Sequence (Q99685 whole entry): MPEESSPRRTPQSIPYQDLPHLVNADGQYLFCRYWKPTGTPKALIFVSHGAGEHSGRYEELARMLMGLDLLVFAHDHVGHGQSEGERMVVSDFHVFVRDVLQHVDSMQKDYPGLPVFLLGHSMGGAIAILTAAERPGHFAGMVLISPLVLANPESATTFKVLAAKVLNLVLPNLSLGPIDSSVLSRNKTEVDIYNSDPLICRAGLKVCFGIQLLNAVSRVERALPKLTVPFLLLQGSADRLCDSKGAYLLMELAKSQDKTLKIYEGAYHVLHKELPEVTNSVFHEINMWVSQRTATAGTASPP
# Assay procedure: In vitro competitive activity-based protein profiling, MAGL (human)
# Assay type: biochemical
# Condition summary: 10 μM, human proteome; read-out: MAGL % inh. 10 μM (human)
# inhibition at 10 µM per record follows

compound=CC(=O)N(C)c1cnn(C(=O)N2CC3(CCN(Cc4ccc(N5CCOCC5)cc4)CC3)C2)c1 study_system="MAGL (Homo sapiens (Human), UniProt Q99685)" result="0 to 25%"
compound="COc1ccc(CN2CCC3(CCN(C(=O)n4cc(N(C)C(C)=O)cn4)C3)C2)cc1 (centres unmarked)" study_system="MAGL (Homo sapiens (Human), UniProt Q99685)" result="≥ 75%"
compound="CC(=O)N(C)c1cnn(C(=O)N2CCC3(CCN(Cc4cccc(N5CCOCC5)c4)C3)C2)c1 (centres unmarked)" study_system="MAGL (Homo sapiens (Human), UniProt Q99685)" result="≥ 75%"
compound="CC(=O)N(C)c1cnn(C(=O)N2CCC3(CCN(Cc4ccccc4F)C3)C2)c1 (centres unmarked)" study_system="MAGL (Homo sapiens (Human), UniProt Q99685)" result="≥ 75%"
compound="CC(=O)N(C)c1cnn(C(=O)N2CCC3(CCN(Cc4ccc(CN5CCOCC5)cc4)C3)C2)c1 (centres unmarked)" study_system="MAGL (Homo sapiens (Human), UniProt Q99685)" result="≥ 75%"

For the compound shown here, CS(=O)(=O)Nc1cnn(C(=O)N2CCN(Cc3ccc(-c4ccc(C(F)(F)F)nc4)cc3C(F)(F)F)CC2)c1 , give the reported inhibition at 10 µM.
≥ 75%

For the compound shown here, CC(=O)N(C)c1cnn(C(=O)N2CC3(CCN(Cc4ccccc4C(F)(F)F)CC3)C2)c1 , give the reported inhibition at 10 µM.
25 to 50%

For the compound shown here, COc1ccccc1CN1CC2CN(C(=O)n3cc(N(C)C(C)=O)cn3)CC2C1 (centres unmarked) , give the reported inhibition at 10 µM.
≥ 75%

src = patent US10323038B2
